Assay: in vitro
Conditions: PAMPA
QUANTITY: Papp at 16 h, 100 mg mL^−1 (×10⁻⁶ cm/s)

[[record]]
molecule = "CCCCCCNC(=O)Cc1ccc(OC)c(OC)c1 [Compound 3g, 2-(3,4-Dimethoxyphenyl)-N-hexylacetamide]"
display_unit = "×10⁻⁶ cm/s"
obs_value = 11.2

[[record]]
molecule = "CCCCCCCC(=O)NCc1ccc(O)c(O)c1 [Compound 3k, N-(3,4-Dihydroxybenzyl)octanamide]"
display_unit = "×10⁻⁶ cm/s"
obs_value = 9.23

[[record]]
molecule = "CCCCCCCCC(=O)NCc1ccc(O)c(O)c1 [Compound 3n, N-(3,4-Dihydroxybenzyl) nonanamide]"
display_unit = "×10⁻⁶ cm/s"
obs_value = 10.1

[[record]]
molecule = "CC(C)CCCCCCC(=O)NCc1ccc(O)c(O)c1 [Compound 3c]"
display_unit = "×10⁻⁶ cm/s"
obs_value = 8.45

[[record]]
molecule = "COc1cc(CNC(=O)CCCCCCC(C)C)ccc1O [Compound 3b, Dihydrocapsaicin]"
display_unit = "×10⁻⁶ cm/s"
obs_value = 5.96


(1) CCCCCCCCNC(=O)Cc1ccc(O)c(O)c1 [Compound 3q, 2-(3,4-Dihydroxyphenyl)-N-octylacetamide]
(2) CCCCCCC(=O)NCc1ccc(OC)c(OC)c1 [Compound 3e, N-(3,4-Dimethoxybenzyl)heptanamide]
Which value of Papp at 16 h, 100 mg mL^−1 is greater, the one for 1 or the one for 2 ? Selection: enter the item's label. 2
(2: 10.8 ×10⁻⁶ cm/s, 1: 6.54 ×10⁻⁶ cm/s)

(I) CCCCCCNC(=O)Cc1ccc(O)c(OC)c1 [Compound 3f]
(II) CCCCCCCCC(=O)NCc1ccc(OC)c(OC)c1 [Compound 3m, N-(3,4-Dimethoxybenzyl)nonanamide]
Which value of Papp at 16 h, 100 mg mL^−1 is greater, the one for I or the one for II ? Selection: enter the item's label. II
(II: 10.6 ×10⁻⁶ cm/s, I: 6.24 ×10⁻⁶ cm/s)

(a) CCCCCCNC(=O)Cc1ccc(O)c(O)c1 [Compound 3h, 2-(3,4-Dihydroxyphenyl)-N-hexylacetamide]
(b) Cn1c(=O)c2c(ncn2C)n(C)c1=O [Caffeine, reference compound]
# query: argmin of Papp at 16 h, 100 mg mL^−1 over a and b Selection: enter the item's label. b
(b: 0.79 ×10⁻⁶ cm/s, a: 7.68 ×10⁻⁶ cm/s)
